Target: T1, monkey C5-mmh (monkey, UniProt P01031 19-1676 (human entry), limits assumed)
T1 construct: Recombinant monkey C5 with a C-terminal myc-myc-hexahistidine tag
T1 chain: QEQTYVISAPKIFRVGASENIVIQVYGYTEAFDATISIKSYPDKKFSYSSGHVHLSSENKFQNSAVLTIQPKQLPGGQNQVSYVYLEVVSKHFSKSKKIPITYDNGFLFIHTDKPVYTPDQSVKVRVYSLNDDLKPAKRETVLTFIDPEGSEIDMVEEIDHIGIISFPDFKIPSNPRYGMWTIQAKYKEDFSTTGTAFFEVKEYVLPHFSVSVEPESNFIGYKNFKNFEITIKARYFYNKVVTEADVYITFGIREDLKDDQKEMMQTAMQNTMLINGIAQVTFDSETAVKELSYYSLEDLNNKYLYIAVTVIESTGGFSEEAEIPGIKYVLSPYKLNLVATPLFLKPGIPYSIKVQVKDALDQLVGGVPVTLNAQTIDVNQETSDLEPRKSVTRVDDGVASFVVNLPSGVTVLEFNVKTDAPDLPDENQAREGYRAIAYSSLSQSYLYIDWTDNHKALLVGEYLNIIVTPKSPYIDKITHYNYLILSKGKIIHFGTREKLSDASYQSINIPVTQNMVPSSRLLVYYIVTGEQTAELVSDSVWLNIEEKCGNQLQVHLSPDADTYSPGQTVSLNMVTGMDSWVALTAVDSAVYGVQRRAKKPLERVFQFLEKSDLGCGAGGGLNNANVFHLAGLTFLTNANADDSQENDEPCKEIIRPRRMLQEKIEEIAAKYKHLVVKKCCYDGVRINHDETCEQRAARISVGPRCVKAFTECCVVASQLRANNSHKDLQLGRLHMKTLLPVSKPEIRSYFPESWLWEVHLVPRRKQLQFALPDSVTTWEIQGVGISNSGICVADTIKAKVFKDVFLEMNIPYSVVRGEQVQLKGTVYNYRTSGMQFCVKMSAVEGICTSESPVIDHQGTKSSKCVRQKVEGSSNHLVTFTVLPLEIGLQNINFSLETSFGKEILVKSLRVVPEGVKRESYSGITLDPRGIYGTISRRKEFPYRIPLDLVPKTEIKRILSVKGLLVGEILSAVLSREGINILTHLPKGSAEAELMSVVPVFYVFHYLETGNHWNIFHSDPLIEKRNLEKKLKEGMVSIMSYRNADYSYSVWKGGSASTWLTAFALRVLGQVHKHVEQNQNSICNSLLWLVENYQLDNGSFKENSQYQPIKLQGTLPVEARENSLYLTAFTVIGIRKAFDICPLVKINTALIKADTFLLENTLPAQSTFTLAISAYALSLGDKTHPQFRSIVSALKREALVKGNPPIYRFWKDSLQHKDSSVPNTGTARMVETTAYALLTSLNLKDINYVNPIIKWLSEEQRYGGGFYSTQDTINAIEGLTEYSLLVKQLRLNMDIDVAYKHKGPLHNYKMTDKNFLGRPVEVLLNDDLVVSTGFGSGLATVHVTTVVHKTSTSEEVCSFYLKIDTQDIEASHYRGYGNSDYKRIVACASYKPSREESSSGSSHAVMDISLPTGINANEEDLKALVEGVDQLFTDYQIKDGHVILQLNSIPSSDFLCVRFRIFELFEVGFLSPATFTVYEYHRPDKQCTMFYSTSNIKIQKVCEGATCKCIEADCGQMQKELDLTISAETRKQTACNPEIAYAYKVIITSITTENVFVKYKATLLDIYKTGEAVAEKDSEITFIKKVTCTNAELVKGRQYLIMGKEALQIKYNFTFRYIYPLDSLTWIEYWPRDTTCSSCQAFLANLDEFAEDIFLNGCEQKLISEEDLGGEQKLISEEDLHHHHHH
Assay method text: SPR, mAb captured via anti-hFc, 37C
Experimental: Equilibrium dissociation constants (KD values) for C5 binding to purified anti-C5 antibodies were determined using a real-time surface plasmon resonance biosensor assay on a Biacore T200 instrument. […] Human C5 was obtained from a commercial source (EMD). […] Association of all the C5 reagents to each of the captured monoclonal antibodies was monitored for 3 minutes and their dissociation in HBST running buffer was monitored for 8 minutes. […]
Each record here notes measured pKd.
For clarity, pKd is expressed as the negative log10 of concentration in mol/L.

• H4H12166P4 (antibody, human IgG4, V domains shown, Histidine-mutated CDR variant of H4H12166P; human IgG4 Fc with S108P) VH: QVQLQESGPGLVKPSETLSLTCTVSGDSVSSSYWTWIRQPPGKGLEWIGYIYYSGSSNYNPSLKSRATISVDTSKNQFSLKLSSVTAADTAVYYCAREGNVDTTMIFDYWGQGTLVTVSS VL: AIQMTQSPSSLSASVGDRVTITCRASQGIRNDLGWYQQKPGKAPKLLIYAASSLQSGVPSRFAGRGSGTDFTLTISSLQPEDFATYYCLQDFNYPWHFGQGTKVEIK = 8.09
• H4H12159P (antibody, human IgG4, V domains shown, Human IgG4 Fc with S108P hinge mutation (H4H)) VH: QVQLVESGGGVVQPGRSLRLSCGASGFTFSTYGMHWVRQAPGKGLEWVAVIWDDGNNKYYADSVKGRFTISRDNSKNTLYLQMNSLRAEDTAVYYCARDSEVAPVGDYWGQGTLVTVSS VL: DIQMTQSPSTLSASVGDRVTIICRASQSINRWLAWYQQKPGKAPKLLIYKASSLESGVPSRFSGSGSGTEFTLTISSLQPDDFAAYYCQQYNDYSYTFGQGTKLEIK = 9.88
• H4H12161P (antibody, human IgG4, V domains shown, Human IgG4 Fc with S108P hinge mutation (H4H)) VH: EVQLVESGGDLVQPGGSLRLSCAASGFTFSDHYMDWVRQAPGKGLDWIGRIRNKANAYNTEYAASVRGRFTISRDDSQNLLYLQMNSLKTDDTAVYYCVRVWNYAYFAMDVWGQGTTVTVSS VL: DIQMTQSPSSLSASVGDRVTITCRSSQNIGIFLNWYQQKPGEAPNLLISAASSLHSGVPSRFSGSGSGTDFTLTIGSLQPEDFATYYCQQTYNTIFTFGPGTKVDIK = 8.25

Input: // query pKd value for entry H4H12166P8 (antibody, human IgG4, V domains shown, Histidine-mutated CDR variant of H4H12166P; human IgG4 Fc with S108P) VH: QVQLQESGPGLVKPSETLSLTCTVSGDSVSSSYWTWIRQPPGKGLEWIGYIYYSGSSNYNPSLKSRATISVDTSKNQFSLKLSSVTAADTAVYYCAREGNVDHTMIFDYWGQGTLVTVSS VL: AIQMTQSPSSLSASVGDRVTITCRASQGIRNDLGWYQQKPGKAPKLLIYAASSLQSGVPSRFAGRGSGTDFTLTISSLQPEDFATYYCHQDFNYPWTFGQGTKVEIK
Output: 7.88

Input: How about this binder: H4H12168P (antibody, human IgG4, V domains shown, Human IgG4 Fc with S108P hinge mutation (H4H)) VH: QVQLVESGGGVVQPGGSLRLSCAASGFTFGGHAMHWVRQAPGKGLEWLAVISSDGSNKQYADSVKGRFTISRDNPKNTLYLQMNSLRVGDTAIYYCAKEVAPRYYYYGLDVWGQGTTVTVSS VL: DIQMTQSPSSLSASVGDRVTITCRASQDISNFLAWYQQKPGKVPKLLIYTASTLQSGVPSRFSGSGSGTDFTLTVSSLQPEDVATYYCQKYAGALTFGPGTKVDIK
Output: 7.90
